- system: Bone morphogenetic protein 4 (Homo sapiens, UniProt P12644)
- assay: Inhibition of BMP4-induced phosphorylation of SMAD 1/5/8 by cytoblot cellular ELISA
pIC50: −log10 of the molar value.
reported.property: pIC50

Example entries and their recorded answers appear below.
Given the entry COc1ccc(-c2cnc3c(-c4ccnc5ccccc45)cnn3c2)cc1 , report its measured pIC50.
7.26

Entry under review: c1cc(-c2cnc3c(-c4ccnc5ccccc45)cnn3c2)cc(N2CCNCC2)c1 . Reported pIC50?
4.70

Fill in the blank: the reported pIC50 of Oc1ccc(-c2cnc3c(-c4ccnc5ccccc45)cnn3c2)cc1 is ____.
6.60

Given the molecule CN1CCN(CCOc2ccc(-c3cnc4c(-c5ccnc6ccccc56)cnn4c3)cc2)CC1 , what is its reported pIC50?
8.00

May I ask what pIC50 has been recorded for CN1CCN(CCOc2cccc(-c3cnc4c(-c5ccncc5)cnn4c3)c2)CC1 ?
5.35

A. c1ccc2c(-c3cnn4cccnc34)ccnc2c1
B. c1ccc(-c2cnc3c(-c4ccnc5ccccc45)cnn3c2)cc1
# query: argmin of pIC50 over A and B Could you answer with the label of the item you picked?
A

1. c1ccc2c(-c3ccn4cc(-c5ccc(OCCN6CCCCC6)cc5)cnc34)ccnc2c1
2. COc1ccc(-c2cnc3c(-c4ccncc4)cnn3c2)cc1
3. c1ccc2c(-c3cnn4cc(-c5ccc(OCCN6CCCCC6)cc5)cnc34)ccnc2c1
Thanks in advance: please rank these 3 entries by pIC50, highest to lowest. Put the labels in the requested order and list them out.
3, 1, 2
(3: 7.05, 1: 5.59, 2: 5.19)

* * *

- assay: Tmax in male C57B16 mouse at 3.0 mg/kg, ip
- Assay type: ADME, organism-based
- Set-up: dose 3 mg/kg, route intraperitoneal
- details: in vivo
reported.property: Tmax

Return reported Tmax; argument: c1ccc2c(-c3cnn4cc(-c5ccc(N6CCNCC6)cc5)cnc34)ccnc2c1
< 5 min

* * *

- assay: Metabolic stability in mouse liver microsomes assessed as intrinsic clearance
- Type: ADME, Microsome
reported.property: microsomal CLint (µL/min/mg)
// return numeric value only (unit: µL/min/mg, not printed)

What value of microsomal CLint has been reported for the following molecule? CN1CCN(CCOc2ccc(-c3cnc4c(-c5ccnc6ccccc56)cnn4c3)cc2)CC1
104

* * *

- assay: Tmax in female C57B16 mouse at 3.0 mg/kg, ip
- Type: ADME, organism-based
- Set-up: dose 3 mg/kg, route intraperitoneal
- details: in vivo
reported.property: Tmax

# lookup: Tmax of c1ccc2c(-c3cnn4cc(-c5ccc(N6CCNCC6)cc5)cnc34)ccnc2c1
< 5 min

* * *

- assay: Metabolic stability in mouse liver microsomes assessed as half life
- Assay type: ADME, Microsome
reported.property: half-life (min)
# value in min; strip the unit string

// half-life lookup, key: CN1CCN(CCOc2ccc(-c3cnc4c(-c5ccnc6ccccc56)cnn4c3)cc2)CC1
13.3

* * *

- system: Bone morphogenetic protein 4 (Homo sapiens, UniProt P12644)
- Sequence (P12644 whole entry): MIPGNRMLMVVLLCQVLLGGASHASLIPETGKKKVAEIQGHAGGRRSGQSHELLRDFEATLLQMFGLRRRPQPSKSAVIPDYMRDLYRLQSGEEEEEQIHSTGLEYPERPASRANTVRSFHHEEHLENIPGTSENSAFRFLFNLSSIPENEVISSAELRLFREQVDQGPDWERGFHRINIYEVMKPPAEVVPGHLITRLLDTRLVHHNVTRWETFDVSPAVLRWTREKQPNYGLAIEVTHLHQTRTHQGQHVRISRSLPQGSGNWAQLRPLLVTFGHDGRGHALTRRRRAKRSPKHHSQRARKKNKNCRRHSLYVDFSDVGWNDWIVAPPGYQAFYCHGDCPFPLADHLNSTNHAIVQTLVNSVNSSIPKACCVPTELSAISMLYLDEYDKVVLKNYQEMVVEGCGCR
- assay: Inhibition of BMP4-induced phosphorylation of SMAD 1/5/8 by cytoblot cellular ELISA
pIC50: −log10 of the molar value.
reported.property: pIC50

Recorded results for 3 compounds are shown here.
Could you tell me which pIC50 is on file for COc1ccc(-c2cnc3c(-c4cccc5ncccc45)cnn3c2)cc1 ?
5.52

pIC50 for c1ccc2c(-c3cnn4cc(-c5ccc(N6CCNCC6)cc5)ccc34)ccnc2c1 ?
8.30

I am curious: what pIC50 value has been reported for CN1CCN(CCOc2ccc(-c3cnc4c(-c5ccncc5)cnn4c3)cc2)CC1 ?
6.35

A. c1ccc2c(-c3cnn4cc(-c5ccc(N6CCNCC6)cc5)cnc34)ccnc2c1
B. COc1ccc(-c2ccc3c(-c4ccnc5ccccc45)cnn3c2)cc1
C. CN1CCN(CCOc2ccc(-c3cnc4c(-c5ccncc5F)cnn4c3)cc2)CC1
D. Clc1ccc2c(-c3cnn4cc(-c5ccc(N6CCNCC6)cc5)cnc34)ccnc2c1
# sort list by recorded pIC50, greatest to least Reply: labels, ordered per the request.
A, B, D, C
